I'd appreciate it if you could supply EC50 values for the items below.
system-name: GLP-1R (Homo sapiens)
Construct: host or cells: GLP-1R CRE-bla CHO-K1 cells
Sequence (P43220 24-463): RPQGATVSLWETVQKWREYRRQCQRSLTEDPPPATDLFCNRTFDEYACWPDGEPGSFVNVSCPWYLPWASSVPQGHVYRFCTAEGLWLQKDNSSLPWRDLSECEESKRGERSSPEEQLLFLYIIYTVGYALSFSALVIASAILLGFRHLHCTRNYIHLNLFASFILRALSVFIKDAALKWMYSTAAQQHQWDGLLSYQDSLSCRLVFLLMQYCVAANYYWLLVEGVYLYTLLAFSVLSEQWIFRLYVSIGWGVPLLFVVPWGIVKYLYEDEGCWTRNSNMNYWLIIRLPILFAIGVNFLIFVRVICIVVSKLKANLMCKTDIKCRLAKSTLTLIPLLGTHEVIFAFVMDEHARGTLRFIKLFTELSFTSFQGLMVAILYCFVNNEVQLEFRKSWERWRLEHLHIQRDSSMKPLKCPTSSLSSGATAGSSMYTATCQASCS
Sequence (P01275 100-127 partner limits assumed): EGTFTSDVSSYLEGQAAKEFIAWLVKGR
experiment-summary: EC20 GLP-1(9-36) PAM cAMP assay: dose response of compound in the presence of fixed concentration of GLP-1(9-36)
Assay type: cell-based
setup-conditions: dose response of compound in presence of fixed concentration of GLP-1(9-36), GLP-1R CRE-bla CHO-K1 cells, read-out: EC20 GLP-1(9-36) PAM EC50

Field: example entries. Status: answers known.
{"compound": "C[C@@H](NC(=O)[C@H](Cc1ccc(-c2ncc(-c3ccc(C(F)(F)F)cc3)cn2)cc1)NC(=O)c1ccc(C(C)(C)C)s1)C(=O)O [Compound 742]", "result": "2500 to 5000 nM"}
{"compound": "CCCCCCCOc1ccc(-c2cnc(-c3ccc(C[C@H](NC(=O)c4ccc(C(C)(C)C)s4)C(=O)N4CC(CN(C)C)C4)cc3)nc2)cc1 [Compound 975]", "result": "5000 to 10000 nM"}
{"compound": "CCCCCCCOc1ccc(-c2cnc(-c3ccc(C[C@H](NC(=O)c4ccc(CC(C)C)cc4)C(=O)N4CCC[C@H]4C(=O)O)cc3)nc2)cc1 [Compound 1076]", "result": "2500 to 5000 nM"}
{"compound": "CCCCCCCOc1ccc(-c2cnc(-c3ccc(C[C@H](NC(=O)c4ccc(C(C)(C)C)s4)C(=O)NS(=O)(=O)CC)cc3)nc2)cc1 [Compound 420]", "result": "< 800 nM"}
{"compound": "CCCCCCCOc1ccc(-c2cnc(-c3ccc(C[C@H](NC(=O)c4ccc(C(C)(C)C)s4)C(=O)N[C@@H](CC(=O)N(C)CCN)C(=O)O)cc3)nc2)cc1 [Compound 519]", "result": "800 to 2500 nM"}
{"compound": "CCCCCCCOc1ccc(-c2cnc(-c3ccc(C[C@H](NC(=O)c4ccc(C(C)(C)C)s4)C(=O)NC(C(=O)O)C(O)c4ccc(C#N)cc4)cc3)nc2)cc1 (stereo partly drawn) [Compound 911]", "result": "800 to 2500 nM"}

Give me EC50 for each of these compounds, listed below.
1. CCCCCCCOc1ccc2cc(-c3ccc(C[C@H](NC(=O)c4ccc(C(C)(C)C)cc4)C(=O)O)cc3)ncc2c1 [Compound 672]
2. CCCCOc1ccc(-c2cnc(-c3ccc(C[C@H](NC(=O)c4ccc(C(C)(C)C)cc4)C(=O)NCCC(=O)O)cc3)nc2)cc1 [Compound 709]
3. CCCCCCCOc1ccc(-c2cnc(-c3ccc(C[C@H](NC(=O)/C=C/C(C)(C)C)C(=O)NC(C(=O)O)C(O)c4ccccc4)cc3)nc2)cc1 (stereo partly drawn) [Compound 955]
4. CCCCCCCOc1ccc(-c2cnc(-c3ccc(C[C@H](NC(=O)c4ccc(C(C)(C)C)cc4)C(=O)NC(CC(=O)O)c4ccccc4)cc3)nc2)cc1 (stereo partly drawn) [Compound 539]

1. 2500 to 5000 nM
2. 800 to 2500 nM
3. 5000 to 10000 nM
4. 5000 to 10000 nM

Give me EC50 for each of these compounds, listed below.
1. CCCCCCCOc1ccc(-c2cnc(-c3ccc(C[C@H](NC(=O)c4ccc(C(C)(C)C)s4)C(=O)N[C@@H](CC(=O)NCCO)C(=O)O)cc3)nc2)cc1 [Compound 521]
2. CCc1ccc(C(=O)N[C@@H](Cc2ccc(-c3ncc(-c4ccc([C@H]5CC[C@H](CC)CC5)cc4)cn3)cc2)C(=O)N2CC(C(=O)O)C2)cc1 [Compound 1168]

1. < 800 nM
2. < 800 nM
